Data provenance is ChEMBL document CHEMBL4699639.

# Study Target: NAD(P)H dehydrogenase [quinone] 1 (Homo sapiens)
# Assay Procedure: Substrate activity at NQO1 in human HepG2 cells assessed as reduction in cell viability by WST-1 assay
# Assay type: cell-based
Active and inactive are the calls of the source. The calls are words filed in the database; no cut-off is given here.
Measurement Name: Activity

query_smiles=O=C1C(Nc2ccc(F)c(C(F)(F)F)c2)=C(SC(F)(F)F)C(=O)c2ccccc21 assay_value=Active
query_smiles=CSC1=C(Nc2ccc(F)c(C(F)(F)F)c2)C(=O)c2ccccc2C1=O assay_value=Active
query_smiles=O=C1C(Cl)=C(Nc2cccc(O)c2)C(=O)c2ccccc21 assay_value=Active

----------
# Study Target: NAD(P)H dehydrogenase [quinone] 1 (Homo sapiens) (UniProt P15559)
# Sequence (P15559 whole entry): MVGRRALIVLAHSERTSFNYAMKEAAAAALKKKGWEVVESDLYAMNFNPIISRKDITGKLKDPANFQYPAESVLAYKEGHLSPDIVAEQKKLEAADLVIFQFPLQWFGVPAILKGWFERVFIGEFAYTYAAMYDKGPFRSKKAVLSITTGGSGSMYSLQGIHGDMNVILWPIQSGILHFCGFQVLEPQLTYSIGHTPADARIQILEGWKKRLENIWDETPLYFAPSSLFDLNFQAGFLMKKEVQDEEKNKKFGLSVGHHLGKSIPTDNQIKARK
# Assay Procedure: Substrate activity at recombinant NQO1 (unknown origin) assessed as reduction in NADH level at 20 uM measured for 6 mins by microplate reader analysis
Active and inactive are the calls of the source. The calls are words filed in the database; no cut-off is given here.
Outcome codes: active, inactive

query_smiles=CSC1=C(Nc2ccc(F)c(C(F)(F)F)c2)C(=O)c2ccccc2C1=O class_label=active
query_smiles=CNC1=C(Nc2ccc(F)c(C(F)(F)F)c2)C(=O)c2ccccc2C1=O class_label=inactive
query_smiles=CC1=C(CCCC(=O)NCCc2ccc(O)cc2)C(=O)c2ccccc2C1=O class_label=inactive
query_smiles=CNC1=C(Nc2ccccc2)C(=O)c2ccccc2C1=O class_label=inactive
query_smiles=COC1=C(Nc2ccc(F)c(C(F)(F)F)c2)C(=O)c2ccccc2C1=O class_label=active
query_smiles=O=C1C(Nc2ccc(F)c(C(F)(F)F)c2)=C(SC(F)(F)F)C(=O)c2ccccc21 class_label=active
